For reference, the following IC50 results for UniProt:P00376 were taken from various sources.
valueType: IC50 (µM)

* COc1ccc(-n2c(SCC(=O)N/N=C/c3ccc(Cl)cc3)nc3cc(OC)c(OC)cc3c2=O)cc1 | 7.6
* Nc1nc(N)c2c(n1)NCC(CCc1ccc(C(=O)NC(CCC(=O)O)C(=O)O)cc1)C2 (centres undefined) | 0.071

1: CCOC(=O)CSc1nc2ccc(Cl)cc2c(=O)n1-c1ccc(OC)cc1
2: COc1ccc(-n2c(S)nnc2CSc2nc3cc(OC)c(OC)cc3c(=O)n2-c2ccc(OC)cc2)cc1
So which one has the bigger IC50 here, 1 or 2 ? Return value: the label identifying the chosen record.
2

A: COc1ccc(-n2c(SCc3nnc(S)n3-c3ccc(Cl)cc3)nc3cc(OC)c(OC)cc3c2=O)cc1
B: NC1=NC2(CCCC2)N(OCCCOc2ccccc2)C(N)=N1
C: COc1ccc(/C=N/NC(=O)CSc2nc3ccc(Cl)cc3c(=O)n2-c2ccc(OC)cc2)cc1
// ranking: key=IC50, reverse=True Please respond by ranking the labels in the order requested.
A, C, B

---

pIC50: −log10 of the molar value.
For reference, the following pIC50 results for Dihydrofolate reductase (Bos taurus, UniProt P00376) were taken from various sources.
valueType: pIC50

Please review the entries below; each comes with its answer.
• NC1=NC2(CCCC2)N(OCCCCOc2ccccc2)C(N)=N1 = 7.37
• CN(CCCON1C(N)=NC(N)=NC12CCCC2)c1ccccc1 = 7.83

a: COc1ccc(-n2c(SCc3nnc(Nc4ccc(Cl)cc4)s3)nc3cc(OC)c(OC)cc3c2=O)cc1
b: Nc1nc(N)c2cc(CCc3ccc(C(=O)NC(CCC(=O)O)C(=O)O)cc3)cnc2n1 (stereo unspecified)
c: COc1ccc(-n2c(SCC(=O)NN)nc3cc(OC)c(OC)cc3c2=O)cc1
d: NC1=NC2(CCCCC2)N(OCc2ccccc2)C(N)=N1
e: Clc1cc2c(cc1Cl)N=C(c1ccc(Br)cc1)C1CCCC(=Cc3ccc(Br)cc3)C1=N2 (stereo unspecified)
// ranking: key=pIC50, reverse=True Please respond by ranking the labels in the order requested.
b, e, c, d, a
(b: 7.37, e: 7.00, c: 6.10, d: 5.75, a: 4.83)

---

For reference, the following IC50 results for Dihydrofolate reductase (Bos taurus, UniProt P00376) were taken from various sources.
valueType: IC50 (µM)

I: COc1ccc(-n2c(SCc3nnc(Nc4ccc(Cl)cc4)s3)nc3ccc(Cl)cc3c2=O)cc1
II: NC1=NC2(CCCCC2)N(OCCc2ccccc2)C(N)=N1
III: Nc1nc2c(c(=O)[nH]1)CC(CCc1ccc(C(=O)NC(CCC(=O)O)C(=O)O)cc1)CN2 (centres undefined)
Reorder the items by IC50, least to greatest. Please respond by ranking the labels in the order requested.
II, I, III

---

For reference, the following IC50 results for Dihydrofolate reductase (Bos taurus, UniProt P00376) were taken from various sources.
valueType: IC50 (µM)

• COc1ccc(Nc2nnc(CSc3nc4ccc(Cl)cc4c(=O)n3-c3ccc(OC)cc3)s2)cc1 = 4.4

P: COc1ccc(C=C2CCCC3C2=Nc2cc(C)c(C)cc2N=C3c2ccc(OC)cc2)cc1 (stereo unspecified)
Q: COc1ccc(/C=N/NC(=O)CSc2nc3cc(OC)c(OC)cc3c(=O)n2-c2ccc(OC)cc2)cc1
R: NC1=NC2(CCCCC2)N(OCCCc2ccccc2)C(N)=N1
S: COc1ccc(-n2c(SCC(=O)N/N=C/c3ccc(Cl)cc3)nc3ccc(Cl)cc3c2=O)cc1
Put these in order: smallest IC50 first, largest last. Please respond by ranking the labels in the order requested.
R, P, Q, S
(R: 0.0319 µM, P: 0.1 µM, Q: 8 µM, S: 19 µM)
